Target: bovine serum albumin (BSA) (Bos taurus, UniProt P02769)
Sequence (P02769 25-607): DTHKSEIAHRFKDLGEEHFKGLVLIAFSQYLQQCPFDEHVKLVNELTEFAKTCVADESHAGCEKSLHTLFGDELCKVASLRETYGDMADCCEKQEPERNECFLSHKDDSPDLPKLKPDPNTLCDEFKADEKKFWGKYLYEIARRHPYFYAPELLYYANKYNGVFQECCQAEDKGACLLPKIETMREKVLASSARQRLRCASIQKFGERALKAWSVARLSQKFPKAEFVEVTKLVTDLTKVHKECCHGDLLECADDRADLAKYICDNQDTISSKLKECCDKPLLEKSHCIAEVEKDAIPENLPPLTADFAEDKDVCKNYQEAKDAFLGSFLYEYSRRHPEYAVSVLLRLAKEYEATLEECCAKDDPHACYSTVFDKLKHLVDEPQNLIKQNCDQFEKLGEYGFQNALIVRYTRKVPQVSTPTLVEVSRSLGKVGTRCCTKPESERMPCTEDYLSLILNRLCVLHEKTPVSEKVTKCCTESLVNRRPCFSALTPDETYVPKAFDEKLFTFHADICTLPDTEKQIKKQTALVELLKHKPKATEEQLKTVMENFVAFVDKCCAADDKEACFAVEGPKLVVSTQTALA
Experiment: Fluorescence spectroscopy of 2′R-OTA/OTA-BSA complex (binding constant by Hyperquad, fluorescence enhancement)
Conditions: logK (±SD) of binding constant, BSA; K in L/mol; λex = 394 nm, λem = 447 nm; PBS pH 7.4, 25 °C
Readout Type: pKd
// pKd is dimensionless: -log10 of concentration (M)

Memo: C[C@@H]1Cc2c(Cl)cc(C(=O)N[C@H](Cc3ccccc3)C(=O)O)c(O)c2C(=O)O1 , reported pKd: 7.32

###

Target: rat serum albumin (RSA) (Rattus norvegicus)
Sequence (P02770 25-608): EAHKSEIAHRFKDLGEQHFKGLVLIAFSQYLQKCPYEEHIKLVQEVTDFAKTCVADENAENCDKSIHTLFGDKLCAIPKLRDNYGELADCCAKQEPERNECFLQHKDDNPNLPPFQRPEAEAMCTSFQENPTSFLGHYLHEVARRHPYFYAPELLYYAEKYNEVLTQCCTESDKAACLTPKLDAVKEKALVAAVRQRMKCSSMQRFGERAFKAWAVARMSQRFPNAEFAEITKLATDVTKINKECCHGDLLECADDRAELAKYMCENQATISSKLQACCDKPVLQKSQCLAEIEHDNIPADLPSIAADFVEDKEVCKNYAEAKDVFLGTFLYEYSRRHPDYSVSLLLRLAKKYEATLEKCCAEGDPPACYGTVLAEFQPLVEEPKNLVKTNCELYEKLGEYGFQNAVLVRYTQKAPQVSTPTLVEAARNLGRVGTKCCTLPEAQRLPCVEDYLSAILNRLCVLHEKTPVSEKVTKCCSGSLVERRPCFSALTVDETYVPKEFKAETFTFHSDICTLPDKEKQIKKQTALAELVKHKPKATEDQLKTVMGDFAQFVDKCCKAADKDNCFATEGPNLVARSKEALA
Experiment: Fluorescence spectroscopy of 2′R-OTA/OTA-RSA complex (binding constant by Hyperquad, fluorescence enhancement)
Conditions: logK (± SD) of binding constant, RSA; K in L/mol; λex = 295 nm, λem = 447 nm; PBS pH 7.4, 25 °C
Readout Type: Kd (nM)
Entry rule: numbers only, all in nM.

Item C[C@@H]1Cc2c(Cl)cc(C(=O)N[C@H](Cc3ccccc3)C(=O)O)c(O)c2C(=O)O1 [2′R-OTA, 2′R-ochratoxin A] ; assay system rat serum albumin (RSA) (Rattus norvegicus); Kd reported as 355

###

Target: bovine serum albumin (BSA) (Bos taurus, UniProt P02769)
Test: Fluorescence spectroscopy of 2′R-OTA/OTA-BSA complex (binding constant by Hyperquad, fluorescence enhancement)
Settings: logK (± SD) of binding constant, BSA; K in L/mol; λex = 295 nm, λem = 447 nm; PBS pH 7.4, 25 °C
Readout Type: Kd (nM)
Entry rule: numbers only, all in nM.

Memo: C[C@@H]1Cc2c(Cl)cc(C(=O)N[C@H](Cc3ccccc3)C(=O)O)c(O)c2C(=O)O1 , reported Kd: 214

###

Target: human serum albumin (HSA) (Homo sapiens, UniProt P02768)
Sequence (P02768 25-609): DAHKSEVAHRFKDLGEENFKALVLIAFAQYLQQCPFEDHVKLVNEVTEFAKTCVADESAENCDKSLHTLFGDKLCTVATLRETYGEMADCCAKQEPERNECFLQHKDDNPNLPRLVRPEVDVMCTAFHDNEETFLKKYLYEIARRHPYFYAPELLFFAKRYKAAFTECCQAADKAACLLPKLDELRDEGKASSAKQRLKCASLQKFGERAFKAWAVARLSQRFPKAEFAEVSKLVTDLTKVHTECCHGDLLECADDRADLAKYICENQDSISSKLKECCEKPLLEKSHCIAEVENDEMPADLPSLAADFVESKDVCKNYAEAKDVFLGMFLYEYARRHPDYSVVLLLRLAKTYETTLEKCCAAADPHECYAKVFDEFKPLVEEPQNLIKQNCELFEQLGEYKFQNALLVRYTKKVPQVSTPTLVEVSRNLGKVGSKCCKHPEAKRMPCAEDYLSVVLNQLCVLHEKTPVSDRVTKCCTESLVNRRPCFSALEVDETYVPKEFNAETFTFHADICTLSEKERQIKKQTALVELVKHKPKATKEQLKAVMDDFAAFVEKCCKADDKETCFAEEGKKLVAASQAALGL
Assay: Fluorescence spectroscopy of 2′R-OTA-HSA complex (binding constant by Hyperquad, fluorescence enhancement)
Details: human, human serum albumin (HSA) in PBS, pH 7.4
Readout Type: Kd at 1 µM (nM)
Entry rule: numbers only, all in nM.

Item C[C@@H]1Cc2c(Cl)cc(C(=O)N[C@H](Cc3ccccc3)C(=O)O)c(O)c2C(=O)O1 ; assay system human serum albumin (HSA) (Homo sapiens, UniProt P02768); Kd at 1 µM reported as 229

###

Target: human serum albumin (HSA) (Homo sapiens)
Experiment: Fluorescence spectroscopy of 2′R-OTA-HSA complex (binding constant by Hyperquad, fluorescence enhancement)
Readout Type: Kd
The reply must contain the numeric value and, after it, the unit.

Memo: C[C@@H]1Cc2c(Cl)cc(C(=O)N[C@H](Cc3ccccc3)C(=O)O)c(O)c2C(=O)O1 , reported Kd: 525 nM
